// reported IC50, Cyno ENTPD2 NIH/3T3 Assay per item
# EXPERIMENTAL_TARGET: T1, cyno ENTPD2 expressed on NIH/3T3 cells (cynomolgus macaque, UniProt Q9Y5L3 1-495 (human entry))
# T1 chain: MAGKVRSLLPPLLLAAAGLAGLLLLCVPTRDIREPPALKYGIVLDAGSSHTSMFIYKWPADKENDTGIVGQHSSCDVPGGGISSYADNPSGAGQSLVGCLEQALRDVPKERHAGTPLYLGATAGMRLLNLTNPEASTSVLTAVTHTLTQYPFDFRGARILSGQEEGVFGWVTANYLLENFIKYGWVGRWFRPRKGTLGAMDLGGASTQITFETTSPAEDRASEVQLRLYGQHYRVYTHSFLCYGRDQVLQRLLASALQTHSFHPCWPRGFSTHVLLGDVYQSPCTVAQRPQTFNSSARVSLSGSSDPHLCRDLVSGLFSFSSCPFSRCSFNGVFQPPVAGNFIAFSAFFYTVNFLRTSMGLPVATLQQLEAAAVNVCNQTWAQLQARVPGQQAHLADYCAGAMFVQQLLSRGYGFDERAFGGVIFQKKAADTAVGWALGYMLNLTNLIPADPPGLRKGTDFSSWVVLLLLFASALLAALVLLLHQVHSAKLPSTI
# ASSAY_OVERVIEW: cell-based or functional assay
// return numeric value only (unit: nM, not printed)

Reference set (3 entries):
BINDER	MEASUREMENT_UNITS	IC50, Cyno ENTPD2 NIH/3T3 Assay
ANTI-HUMAN ENTPD2 MAB5 (antibody, human IgG1, kappa, V domains shown, humanized and optimized from mAb16; human IgG1, kappa; also called Anti-ENTPD2 mAb5) VH: QIQLQESGPGLVKPSQTLSLTCTVSGYSITSGYYWNWIRQHPGKGLEWIGYISYDADNNYNPSLKNRVTISRDTSKNQFSLKLSSVTAADTAVYYCAGGYYRYGLGSYRGSYYYVMDYWGQGTTVTVSS VL: ETVLTQSPATLSVSPGERATISCKASQSVDYDGNSYMNWYQQKPGQAPRLLIYAASNLESGIPARFSGSGSGTDFTLTISSVEPEDAATYYCQQSNEDPPTFGGGTKLEIKR	nM	1.5
ANTI-HUMAN ENTPD2 MAB3 (antibody, human IgG1, kappa, V domains shown, humanized from mAb17; human IgG1, kappa; also called Anti-ENTPD2 mAb3) VH: QVQLVQSGAEVVKPGASVKISCKASGYTFTDYNMDWVKQAPGQRLEWIGDINPKYDISTYNQQFKGKATITVDTSASTAYMELSSLRSEDTAVYYCARRGFFLYYGINYYYFDVWGQGTLVTVSS VL: EIVLTQSPATLSASPGERITLSCSASSSVSYIHWYQQKPGQAPRLLIYSTSNLASGIPARFSGSGSGTFYTLTISSVEPEDAAVYYCHQWSSYPWTFGGGTKLEIKR	nM	5.8
ANTI-HUMAN ENTPD2 MAB8 (antibody, human IgG1, lambda, V domains shown, also called Anti-ENTPD2 mAb8) VH: QVQLQQSGPGLVKPSQTLSLTCAISGDSVSSSSAAWNWIRQSPSRGLEWLGRIYYRSKWYNDYAVSVKSRITINPDTSKNQFSLQLNSVTPEDTAVYYCARGSYVTSSYEGFDYWGQGTLVTVSS VL: SYELTQPLSVSVALGQTARITCSGDNLPEKYAYWYQQKPGQAPVLVIYDDNKRPSGIPERFSGSNSGNTATLTISRAQAGDEADYYCQSYGKWGWTWVFGGGTKLTVLG	nM	0.9

The record that follows has no IC50, Cyno ENTPD2 NIH/3T3 Assay shown yet.
Input line: Reported IC50, Cyno ENTPD2 NIH/3T3 Assay, binder ANTI-HUMAN ENTPD2 MAB6 (antibody, human IgG1, kappa, V domains shown, humanized and optimized from mAb16; human IgG1, kappa; also called Anti-ENTPD2 mAb6) VH: QVQLQESGPGLVKPSQTLSLTCTVSGYSITSGYYWNWIRQHPGKGLEWMGYISYDADNNYNPSLKNRITISRDTSKNQFSLKLSSVTAADTAVYYCAGGYYRYGLGSYSGSYYYVMDYWGQGTTVTVSS VL: DTQMTQSPSSLSVSVGDRATITCKASQSVDYEGHSYMNWYQQKPGKAPKLLIYAASNLESGVPSRFSGSGSGTDFTLTISSVQPEDFATYYCQQSNEDPPTFGGGTKLEIKR : ____
Output line: 3.3
